molecular target: Bcl-xL (Homo sapiens (Human)); experiment: Fluorescence polarization competition assay, Bcl-xL; format: binding; conditions: ΔG from experimental Ki
Sequence (Q07817 whole entry): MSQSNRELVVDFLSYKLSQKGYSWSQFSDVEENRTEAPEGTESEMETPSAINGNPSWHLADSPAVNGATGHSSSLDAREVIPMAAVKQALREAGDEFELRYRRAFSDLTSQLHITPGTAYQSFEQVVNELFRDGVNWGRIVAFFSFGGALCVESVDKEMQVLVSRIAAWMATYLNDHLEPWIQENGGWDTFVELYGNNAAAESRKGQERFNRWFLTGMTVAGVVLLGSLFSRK
In this section, each of the compounds is paired with its reported Bcl-xL Exp ΔG.
Enter your answer as a number in kcal/mol; do not include the unit.

CC(C)CN(c1ccc(OC(C)C)cc1)S(=O)(=O)c1cc(C(=O)O)c(O)c2ccccc12 [3ba; MEL-2-116]
-7.11
O=C(O)c1cc(S(=O)(=O)NCC2CCCCC2)c2ccccc2c1O [3g; MEL-3-006]
-5.60
Cc1cc(Oc2ccc(N(C3CCCC3)S(=O)(=O)c3cc(C(=O)O)c(O)c4ccccc34)cc2)cc(C)c1Cl [3bk; JY-5-379]
-8.91

Could you now consider this next compound?
What measured Bcl-xL Exp ΔG goes with O=C(O)c1cc(S(=O)(=O)Nc2ccccc2C(F)(F)F)c2ccccc2c1O [3u; TA-1-017] ?
-6.43

----------
# pKi annotations
molecular target: Mcl-1 (Homo sapiens (Human), UniProt Q07820); assay: Fluorescence polarization competition assay (FPCA), Mcl-1 / FITC-Bak BH3 peptide; assay type: binding; settings: FPCA with FITC-Bak; Ki from IC50 by Nikolovska-Coleska equation; read-out: Mcl-1 Ki
Sequence (Q07820 172-327): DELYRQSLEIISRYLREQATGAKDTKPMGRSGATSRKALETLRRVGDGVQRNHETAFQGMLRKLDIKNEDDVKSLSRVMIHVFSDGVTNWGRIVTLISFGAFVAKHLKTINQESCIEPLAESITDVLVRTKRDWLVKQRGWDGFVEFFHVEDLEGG
FYI, pKi means -log10 of a concentration in mol per litre.

Use the examples below as a reference point.
O=C(O)c1ccc(N(Cc2ccccc2)S(=O)(=O)c2ccc3ccccc3c2)cc1O [LC-4-113 13ca]
4.94
O=C(O)c1ccc(N(Cc2ccccc2)S(=O)(=O)c2ccc(-c3ccccc3)cc2)cc1O [LC-4-112 13cb]
5.77
O=C(O)c1cc(S(=O)(=O)NCc2ccccc2)c2ccccc2c1O [Compound 3c]
4.25
O=C(O)c1cc(S(=O)(=O)Nc2ccc(Oc3cccc(Br)c3)cc2)c2ccccc2c1O [Compound 3be]
6.94
O=C(O)c1cc(S(=O)(=O)NCc2ccccc2Cl)c2ccccc2c1O [Compound 3d]
4.30

// returns reported pKi for input Cc1cc(C)cc(Oc2ccc(NS(=O)(=O)c3cc(C(=O)O)c(O)c4ccccc34)cc2)c1 [Compound 3bf]
6.55

----------
Measured pKi accompanies every entry in the list below.
Molecular target: Mcl-1 (Homo sapiens (Human), UniProt Q07820)
Test: Fluorescence polarization competition assay (FPCA), Mcl-1 / FITC-Bak BH3 peptide
Type: binding
Conditions: FPCA with FITC-Bak; Ki from IC50 by Nikolovska-Coleska equation; read-out: Mcl-1 Ki
Experimental: The tagged protein was initially purified from the crude cell lysate by immobilized metal affinity chromatography (IMAC) chromatography (GE Healthcare Life Sciences), and after dialysis to remove the imidazole the affinity tag was cleaved using PreScission Protease (GE Healthcare Life Sciences). […] The target molecules were assayed for their abilities to disrupt the Mcl-1-Bak-BH3 PPI in a fluorescence polarization competition (FPC) assay with Mcl-1 and FITC-labeled Bak-BH3 peptide. […]
Formally, pKi is defined as -log10 of the concentration c, with c in mol/L.

Any idea what pKi was measured for `O=C(O)c1cc(S(=O)(=O)Nc2ccccc2Br)c2ccccc2c1O` ?
5.16

----------
The reader will find reported Ki values listed item by item below.
biological target: Mcl-1 (Homo sapiens (Human)); assay: Fluorescence polarization competition assay (FPCA), Mcl-1 / FITC-Bak BH3 peptide; format: binding; conditions: FPCA with FITC-Bak; Ki from IC50 by Nikolovska-Coleska equation; read-out: Mcl-1 Ki

CC(C)CN(c1ccc(C(=O)O)c(O)c1)S(=O)(=O)c1ccc2ccccc2c1 [4jc117-3 13ab]
13.8 µM

Here is the next item to consider.
Provide value of Ki for this record tested with Mcl-1 (Homo sapiens (Human)): Cc1cc(C)cc(Oc2ccc(S(=O)(=O)N(CC(C)C)c3ccc(C(=O)O)c(O)c3)cc2)c1 [LC-4-100 13ai]
2.96 µM
